Molecular target: mGluR4 (Homo sapiens)
Sequence (Q14833 33-912): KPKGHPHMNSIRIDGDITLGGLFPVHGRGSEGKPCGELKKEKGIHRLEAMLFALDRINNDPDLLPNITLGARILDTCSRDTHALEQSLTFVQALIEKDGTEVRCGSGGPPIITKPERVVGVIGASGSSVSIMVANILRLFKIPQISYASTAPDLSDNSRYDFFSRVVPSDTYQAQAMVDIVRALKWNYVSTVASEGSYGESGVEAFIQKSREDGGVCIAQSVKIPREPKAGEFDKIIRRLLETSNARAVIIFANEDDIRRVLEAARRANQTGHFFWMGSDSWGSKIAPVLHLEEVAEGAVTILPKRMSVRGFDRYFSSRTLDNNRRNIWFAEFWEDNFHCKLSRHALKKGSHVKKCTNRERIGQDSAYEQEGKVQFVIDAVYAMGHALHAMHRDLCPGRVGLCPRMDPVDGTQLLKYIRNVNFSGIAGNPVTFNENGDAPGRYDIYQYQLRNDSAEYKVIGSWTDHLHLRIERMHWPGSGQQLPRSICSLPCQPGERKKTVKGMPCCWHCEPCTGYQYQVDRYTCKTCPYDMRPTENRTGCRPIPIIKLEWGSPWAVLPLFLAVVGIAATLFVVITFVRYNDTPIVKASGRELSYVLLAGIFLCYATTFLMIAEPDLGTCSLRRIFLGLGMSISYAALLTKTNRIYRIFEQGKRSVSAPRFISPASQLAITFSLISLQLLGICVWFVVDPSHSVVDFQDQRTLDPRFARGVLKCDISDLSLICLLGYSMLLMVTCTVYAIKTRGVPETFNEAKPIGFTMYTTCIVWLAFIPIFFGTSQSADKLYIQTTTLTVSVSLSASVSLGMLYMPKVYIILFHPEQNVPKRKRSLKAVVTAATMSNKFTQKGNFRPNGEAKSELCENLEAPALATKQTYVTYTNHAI
Assay: mGluR4 binding assay (filtration, [3H] radiotracer displacement, in presence of L-AP4)
Settings: membranes from CHO cells expressing human mGluR4; 20 uM L-AP4; 7 nM radiotracer; 1 hour at room temperature
Experimental: Membranes were prepared from CHO cells expressing the human mGluR4 receptor. […] The binding reaction is incubated at room temperature for 1 hour, and then is passed through GF/B filter that was presoaked with 0.5% PEI. […] The washed filter plate is dried for 30 minutes at 37° C., scintillation fluid is added, and the amount of filter bound radioactivity is determined using a TopCount instrument. […]
pIC50 values for the molecules below.
In plain terms, pIC50 is the concentration in mol/L turned into minus its base-10 logarithm.

Measured pIC50 for this entry `Cc1ccc(NS(=O)(=O)c2ccc(NC(=O)c3ccccn3)cc2)cc1` on mGluR4 (Homo sapiens): 5.96

Measured pIC50 for this entry `O=C(Nc1ccc(S(=O)(=O)Nc2ccccc2Br)cc1)c1ccccn1` on mGluR4 (Homo sapiens): 6.85

Measured pIC50 for this entry `COc1cc(NC(=O)c2ccccn2)ccc1S(=O)(=O)Nc1ccccc1` on mGluR4 (Homo sapiens): 5.22

Measured pIC50 for this entry `O=C(Nc1ccc(S(=O)(=O)Nc2ccccc2Cc2ccccc2)cc1)c1ccccn1` on mGluR4 (Homo sapiens): 6.74

Measured pIC50 for this entry `O=C(Nc1ccc(S(=O)(=O)Nc2ccccc2Cl)cc1)c1ccccn1` on mGluR4 (Homo sapiens): 7.48
